# systemTested: T1, fluorescently quenched α-gliadin hexapeptide analogue QXL520-PQPQLP-K(5-FAM)-NH2
# T1 chain: PQPQLP
observable: Fold Change in Activity of PQ Hydrolysis Relative to Wild Type Kumamolysin-As

Query: Item under review: Kumamolisin-As N291D, D293A, Q361D, D358N (protein) AAPTAYTPLDVAQAYQFPEGLDGQGQCIAIIELGGGYDEASLAQYFASLGVPAPQVVSVSVDGASNQPTGDPSGPDGEVELDIEVAGALAPGAKFAVYFAPDTAAGFLDAITTAIHDPTLKPSVVSISWGGPEDSWTSAAIAAMNRAFLDAAALGVTVLAAAGDSGSTNGEDDGLYHVDFPAASPYVLACGGTRLVASGGRIAQETVWNDGPDGGATGGGVSRIFPLPAWQEHANVPPSANPGASSGRGVPDLAGNADPATGYEVVIDGEATVIGGTSAVAPLFAALVARINQKLGKAVGYLNPTLYQLPADVFHDITEGNNDIANRAQIYQAGPGWDPCTGLGSPIGVRLLQALLPSASQPQPGSTENLYFQSGALEHHHHHH . Reported Fold Change in Activity of PQ Hydrolysis Relative to Wild Type Kumamolysin-As?
Response: 14.8 fold
